System: Sweetpotato Whitefly (Bemisia tabacia)
Experiment: Insecticidal test for sweetpotato whitefly, spray on cotton plants
Format: in vivo
Design: key: A: 90–100; B: 80–89; C: 70–79; D: 60–69; E: 50–59; F: less than 50; G: Inactive
Conditions: 200 ppm spray, 13 days, large nymphs
Procedure: Insecticidal Test for Sweetpotato Whitefly (Bemisia tabacia) Four mg of each test compound was dissolved by adding 4 mL of a 90:10 acetone:ethanol solvent mixture to the vial containing the sample compound. This solution was added to 16 mL of water containing 0.05% Tween 20 surfactant to produce 20 mL of an 200 ppm spray solution. Five-week-old cotton plants reared in a greenhouse were stripped of all foliage except for the two uppermost true leaves that were greater than 5 cm in diameter. […]
readout: WF: activity at 200 ppm against whitefly (% control rating)

>>> recorded_result("Cn1nc(-c2c(F)cccc2Cl)nc1-c1sc(-c2ccc(OC(F)(F)C(F)Br)cc2)cc1Cl (stereo not drawn)")
"G"
>>> recorded_result("Cc1cc(-c2ccc3c(c2)COC3)sc1-c1nc(-c2c(F)cccc2Cl)nn1C")
"G"
>>> recorded_result("Cc1c(-c2nc(-c3c(F)cccc3Cl)nn2C)csc1-c1ccc(OC(F)(F)C(F)C(F)(F)F)cc1 (stereo not drawn) [drawing 216]")
"A (90–100)"
>>> recorded_result("Cc1sc(-c2ccc(C(F)(F)F)cc2F)cc1-c1nc(-c2c(F)cccc2Cl)nn1C")
"G"
>>> recorded_result("Cc1c(-c2nc(-c3c(F)cccc3Cl)nn2C)csc1-c1ccc(OC(F)(F)C(F)F)cc1")
"A (90–100)"
>>> recorded_result("Cc1cc(-c2cccc(C(F)(F)F)c2F)sc1-c1nc(-c2c(F)cccc2Cl)nn1C")
"G"
>>> recorded_result("Cc1c(-c2nc(-c3c(F)cccc3Cl)nn2C)csc1-c1ccc(F)cc1F [drawing 224]")
"G"

###

test system: Beet Armyworm (Spodoptera exigua); test: Insecticidal test for beet armyworm, treated lepidopteran diet; format: in vivo; settings: on diet surface, second-instar larvae, 5 days
readout: BAW: activity at 400 ppm against beet armyworm (% control rating)

>>> recorded_result("Cc1c(-c2nc(-c3c(F)cccc3Cl)nn2C)csc1-c1ccc(OC2CCCCO2)cc1 (stereo not drawn)")
"A (90–100)"
>>> recorded_result("Cc1sc(-c2ccc(Cl)cc2F)cc1-c1nc(-c2c(F)cccc2Cl)nn1C")
"A (90–100)"
>>> recorded_result("Cn1nc(-c2c(F)cccc2Cl)nc1-c1sc(-c2ccc(Br)cc2)cc1Cl")
"A (90–100)"
>>> recorded_result("Cc1sc(-c2ccc(C(F)(F)F)cc2F)cc1-c1nc(-c2c(F)cccc2Cl)nn1C")
"A (90–100)"
>>> recorded_result("Cc1cc(-c2ccc(Cl)c(F)c2)sc1-c1nc(-c2c(F)cccc2Cl)nn1C")
"A (90–100)"
>>> recorded_result("COCCOc1ccc(-c2scc(-c3nc(-c4c(F)cccc4Cl)nn3C)c2C)cc1")
"B (80–89)"
>>> recorded_result("Cc1c(-c2nc(-c3c(F)cccc3Cl)nn2C)csc1-c1ccc(SCF)cc1")
"B (80–89)"
>>> recorded_result("Cc1c(-c2nc(-c3c(F)cccc3Cl)nn2C)csc1-c1ccc(OC(F)(F)C(F)Cl)cc1 (stereo not drawn)")
"A (90–100)"
>>> recorded_result("Cc1c(-c2ccc(OC(F)(F)C(F)C(F)(F)F)cc2)csc1-c1nc(-c2c(F)cccc2Cl)nn1C (stereo not drawn)")
"A (90–100)"

Entry source: patent US7056940B2
